assay: physchem; details: octan-1-ol/water, pH 7.4
MEASUREMENT LABEL: logD
Give a plain numeric answer without units written out.

Kindly note the recorded logD for `O=C(N[C@H]1CN2CCC1CC2)c1ccc(-c2ccccn2)s1` , which is 0.7

Kindly note the recorded logD for `Nc1ccc2nc(-c3ccc(O)cc3)sc2c1` , which is 3.1

Kindly note the recorded logD for `O=C1COc2ccc(CNC3CCN(CCN4C(=O)COc5ccc(Br)cc54)CC3)nc2N1` , which is 1.42

Kindly note the recorded logD for `C[C@@H]1CN(C(=O)OC(C)(C)C)CCN1c1ncc(OCc2ccc(S(C)(=O)=O)cc2)cn1` , which is 3.6

Kindly note the recorded logD for CC(C)C(=O)Nc1ccc([N+](=O)[O-])c(C(F)(F)F)c1 [FLUTAMIDE] , which is 3.46

Kindly note the recorded logD for `OC1(c2ccc(Cl)cc2)CCN(Cc2c[nH]c3ccccc23)CC1` , which is 2.25

Kindly note the recorded logD for `CCc1cc2c(s1)-n1c(C)nnc1CN=C2c1ccccc1Cl` , which is 2.52

Kindly note the recorded logD for `Cn1c(=O)n(Cc2ccc(Br)cc2)c2ccccc21` , which is 2.81

Kindly note the recorded logD for `O=c1c2ccccc2nc2n1CCS2(=O)=O` , which is 0.8

Kindly note the recorded logD for `CCCNC(=O)c1nnc2c(-c3cnc(OC)nc3OC)cccc2c1N` , which is 3.26

Kindly note the recorded logD for `CC(=O)c1ccc2c(c1)N(CCN1CCC(NCc3ccc4c(n3)NC(=O)CO4)CC1)C(=O)CO2` , which is 0.37

Kindly note the recorded logD for `CN1CCC[C@H]1c1ccccn1` , which is 0.44

###

Listing: fraction unbound at 5 h of selected compounds
assay: in vitro; settings: human, plasma, PPB
Give a plain numeric answer without units written out.

COMPOUND	fraction unbound at 5 h
CCn1cc(CNC(=O)c2cc(-c3ccc(C)cc3)nc3ccc(Br)cc23)c(C)n1	0.0011
O=c1cc(N2CCOCC2)nc(NCc2cccc3ccccc23)[nH]1	0.0321
Cn1cc[nH]c1=S	0.81
CCOc1cc2ncc(C(N)=O)c(Nc3ccc(F)cc3F)c2cc1N1CCCN(C2CC2)CC1	0.0219
CC(C)c1nc2ccccc2n1-c1nc(N2CCOCC2)c2nc(OC3CN(C4CCS(=O)(=O)CC4)C3)n(C)c2n1	0.22

Kindly note the recorded fraction unbound at 5 h for `CN[C@@H](C)C(=O)N[C@H](C(=O)N[C@H]1CCCN([C@@H]2CCCc3ccccc32)C1)C1CCCCC1` , which is 0.0676

Kindly note the recorded fraction unbound at 5 h for CO[C@H]1CC[C@]2(CC1)Cc1ccc(OCC(C)C)cc1C21N=C(C)C(N)=N1 (stereo partly specified) , which is 0.201

Kindly note the recorded fraction unbound at 5 h for `COc1ccccc1S(=O)(=O)NC(=O)N1CCC(N2CCC(Oc3ccc(Cl)c(Cl)c3)CC2)CC1` , which is 0.0409

Kindly note the recorded fraction unbound at 5 h for `CNc1c(Br)cnc2[nH]c(-c3cccc(N)c3)nc12` , which is 0.0988

Kindly note the recorded fraction unbound at 5 h for CC1CN(c2cc(=O)[nH]c(NCc3cccc4ccccc34)n2)CCO1 (stereo unspecified) , which is 0.013

Kindly note the recorded fraction unbound at 5 h for `CCc1cnn2c(NCc3ccc[n+]([O-])c3)cc(N3CCCC[C@H]3CCO)nc12` , which is 0.0988

Kindly note the recorded fraction unbound at 5 h for `COc1cc(OC)c2nc(C)c3c(c2c1)N(c1ccc(O)cc1)CC3` , which is 0.112

Kindly note the recorded fraction unbound at 5 h for `CC(=O)c1cc2ccc(O)cc2oc1=O` , which is 0.0149

Kindly note the recorded fraction unbound at 5 h for `C[C@H](Nc1ncc(F)c(Nc2cc(C3CC3)[nH]n2)n1)c1ncc(F)cn1` , which is 0.224
